Molecular target: HLA-A*31:01
Test: IEDB peptide-MHC binding, purified MHC/direct/fluorescence; filed as Kd, often an IC50 or EC50 that approximates it; bounds were set here for any values at or beyond the usual limits of such assays
Settings: source organism: Pseudomonas viridiflava

sequence string	subject of test	Kd
DYDQRDYGF	HLA-A*31:01	≥ 20 µM

---

Biological target: HLA-A*29:02
Assay: IEDB peptide-MHC binding, purified MHC/competitive/fluorescence; filed as Kd, often an IC50 or EC50 that approximates it; bounds were set here for any values at or beyond the usual limits of such assays
Conditions: source organism: Yersinia pestis Nepal516
pKd: −log10 of the molar value.
assay endpoint: pKd

sequence string	subject of test	result
YADGGQWYN	HLA-A*29:02	≤ 4.70

---

Target: HLA-A*31:01
Assay: IEDB peptide-MHC binding, purified MHC/direct/fluorescence; filed as Kd, often an IC50 or EC50 that approximates it; bounds were set here for any values at or beyond the usual limits of such assays
Settings: source organism: Mycobacterium tuberculosis variant bovis

sequence string	Kd
HQAIISDVL	≥ 20 µM

---

Target: HLA-A*69:01
Assay: IEDB peptide-MHC binding, purified MHC/direct/fluorescence; filed as Kd, often an IC50 or EC50 that approximates it; bounds were set here for any values at or beyond the usual limits of such assays
Details: source organism: Bacillus licheniformis

sequence string	unit abbreviation	Kd
ALMEITSRY	µM	11.7

---

Biological target: HLA-A*02:03
Assay: IEDB peptide-MHC binding, purified MHC/competitive/radioactivity; filed as Kd, often an IC50 or EC50 that approximates it; bounds were set here for any values at or beyond the usual limits of such assays
Conditions: source organism: Dengue virus 2 Jamaica/1409/1983
pKd: −log10 of the molar value.
assay endpoint: pKd

sequence string	numeric value
KLFMALVAFL	8.47

---

The entries below come with measured Kd values attached.
Molecular target: HLA-A*03:01
Experiment: IEDB peptide-MHC binding, purified MHC/direct/fluorescence; filed as Kd, often an IC50 or EC50 that approximates it; bounds were set here for any values at or beyond the usual limits of such assays
Conditions: source organism: Homo sapiens

sequence string	Kd / µM
ATDFKFAMY	7.81
ARLFGIRAK	1.24

---

Molecular target: HLA-A*23:01
Test: IEDB peptide-MHC binding, purified MHC/competitive/radioactivity; filed as Kd, often an IC50 or EC50 that approximates it; bounds were set here for any values at or beyond the usual limits of such assays
Details: source organism: Dengue virus 4 Philippines/H241/1956
The entries below come with measured Kd values attached.

sequence string	Kd, µM
AYQHALNEL	2.34
NYKERMVTF	0.101
MWKQITNEL	0.144

---

Target: HLA-B*35:01
Test: IEDB peptide-MHC binding, purified MHC/competitive/radioactivity; filed as Kd, often an IC50 or EC50 that approximates it; bounds were set here for any values at or beyond the usual limits of such assays
Conditions: source organism: Dengue virus 4 Philippines/H241/1956
pKd: −log10 of the molar value.
assay endpoint: pKd

sequence string	assay endpoint	numeric value
YAGPFSQHNY	pKd	6.95
LPSIVREAL	pKd	7.08

---

Molecular target: HLA-A*31:01
Assay: IEDB peptide-MHC binding, purified MHC/competitive/radioactivity; filed as Kd, often an IC50 or EC50 that approximates it; bounds were set here for any values at or beyond the usual limits of such assays
Details: source organism: Mammarenavirus brazilense
pKd: −log10 of the molar value.
The entries below come with measured pKd values attached.

sequence string	limit sign	pKd
KAGQNIRLSH	=	5.28
NTNLIKCSDH	≤	4.43
